- Tested on: rodent lifetime carcinogenesis bioassay, tumor incidence TD50
- METHOD_NOTES: carcinogenic potency in animals, long-term in vivo studies, CPDB compilation (AID 1745844)
- REPORTED_CONDITIONS: mouse; strain Charles River CD1; males; in feed; site: any site (literature study); lesion: several types; types named in the paper; dosed 38 weeks; study length 75 weeks
PROPERTY_LABEL: TD50
In your response, put the unit directly after the numeric value.

May I ask what TD50 has been recorded for Nc1nc(/C=C/c2ccc([N+](=O)[O-])o2)no1 ?
29.2 mg/kg/day

---

- Tested on: rodent lifetime carcinogenesis bioassay, tumor incidence TD50
- METHOD_NOTES: carcinogenic potency in animals, long-term in vivo studies, CPDB compilation (AID 1745844)
- REPORTED_CONDITIONS: rat; strain MRC-Wistar; males; in drinking water; site: liver; lesion: several types; types named in the paper; dosed 64 weeks; study length 64 weeks
PROPERTY_LABEL: TD50

Lab note: need TD50 for O=NN1CCOC1=O on rodent lifetime carcinogenesis bioassay, tumor incidence TD50, anyone have it?
0.582 mg/kg/day
